target: Rap guanine nucleotide exchange factor 4 (Homo sapiens) (UniProt Q8WZA2); test: Confirmatory qHTS for antagonist of cAMP-regulated guanine nucleotide exchange factor 4 (EPAC2) (AID 1645885); conditions: EPAC2 Rap1B-BODIPY-GDP exchange fluorescence, biochemical; series mostly up to 12.7 µM; note: nearly all actives have a fitted effect of over 25% in size
Sequence (Q8WZA2 whole entry, looked up): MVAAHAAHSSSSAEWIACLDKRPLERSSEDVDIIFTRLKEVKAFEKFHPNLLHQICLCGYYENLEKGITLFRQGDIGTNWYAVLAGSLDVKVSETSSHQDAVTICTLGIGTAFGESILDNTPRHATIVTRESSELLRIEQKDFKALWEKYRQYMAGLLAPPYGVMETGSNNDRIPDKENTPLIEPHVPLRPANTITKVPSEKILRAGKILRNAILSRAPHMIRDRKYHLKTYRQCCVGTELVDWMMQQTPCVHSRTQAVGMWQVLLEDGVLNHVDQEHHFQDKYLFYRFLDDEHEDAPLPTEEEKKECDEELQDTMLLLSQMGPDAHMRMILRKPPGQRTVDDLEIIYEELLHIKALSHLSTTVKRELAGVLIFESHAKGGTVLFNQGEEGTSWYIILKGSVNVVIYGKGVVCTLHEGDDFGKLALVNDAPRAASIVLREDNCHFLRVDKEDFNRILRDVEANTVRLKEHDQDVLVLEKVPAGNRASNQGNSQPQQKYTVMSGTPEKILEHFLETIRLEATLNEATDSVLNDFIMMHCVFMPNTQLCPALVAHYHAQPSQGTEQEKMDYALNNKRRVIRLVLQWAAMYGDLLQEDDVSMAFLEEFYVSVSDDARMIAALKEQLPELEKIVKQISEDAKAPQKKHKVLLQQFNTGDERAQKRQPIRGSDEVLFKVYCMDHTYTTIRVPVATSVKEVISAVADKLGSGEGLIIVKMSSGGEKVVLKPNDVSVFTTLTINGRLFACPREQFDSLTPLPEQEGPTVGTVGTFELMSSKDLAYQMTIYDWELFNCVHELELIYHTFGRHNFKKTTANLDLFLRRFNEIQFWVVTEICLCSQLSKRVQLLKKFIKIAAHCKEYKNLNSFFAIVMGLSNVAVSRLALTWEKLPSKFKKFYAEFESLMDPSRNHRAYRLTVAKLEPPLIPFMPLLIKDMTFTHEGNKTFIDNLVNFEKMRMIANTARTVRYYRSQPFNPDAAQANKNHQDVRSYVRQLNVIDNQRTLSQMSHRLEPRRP
Results filed as inconclusive are left out. Calls of active or inactive are those of the source. Calls come from the whole dose curve; as a rule, active = well fitted inhibition curve with a large enough effect; inconclusive = small, poorly fitted or top-dose-only effect; inactive = no such curve, though single readings can be large or run the other way.
Response enum: 1 (active), -1 (inactive)

Solved cases below.
>>> category("CCCc1cc2c(cc1N(C)S(=O)(=O)c1ccccc1)OCO2")
-1
>>> category("CN1CCC/C1=C/C=C1\\SC(=S)NC1=O")
-1
>>> category("COc1cccc(CNC(=O)CCC(=O)N2CC(C)Sc3ccccc32)c1 (centres undefined)")
-1
>>> category("COCCNC(=O)CS(=O)Cc1nc(-c2ccc(Cl)cc2)oc1C (centres undefined)")
-1
>>> category("COc1ccc(-c2onc3ccc(C(C)=O)cc23)cc1")
1
>>> category("CC1(C(=O)NS(=O)(=O)c2ccc(Cl)s2)CCN1C(=O)C1(c2ccc(Cl)cc2)CCC1 (centres undefined)")
1
>>> category("CCOC(=O)c1c(NC(=O)c2ccc(S(=O)(=O)N(C)C3CCCCC3)cc2)sc2c1CCN(C(C)C)C2")
1
>>> category("O=c1c2ccccc2nc(/C=C/c2cccnc2)n1CCc1ccccc1")
-1

--- query ---
# outcome recorded in this test, key = NS(=O)(=O)c1ccc(-c2cccc(/C=C3\SC(=O)NC3=O)c2)cc1
-1

* * *

target: Cytochrome P450 2C9 (Homo sapiens) (UniProt P11712); assay: Cytochrome P450 family 2 subfamily C member 9 (CYP2C9) small molecule antagonists: luciferase biochemical (cell-free) qHTS assay (AID 1645842); conditions: P450-Glo CYP2C9 enzyme assay, luciferin luminescence; series mostly up to 57.4 µM; note: potency is the fitted concentration of half-maximal effect; nearly all actives have a fitted effect of over 55% in size
Sequence (P11712 whole entry, looked up): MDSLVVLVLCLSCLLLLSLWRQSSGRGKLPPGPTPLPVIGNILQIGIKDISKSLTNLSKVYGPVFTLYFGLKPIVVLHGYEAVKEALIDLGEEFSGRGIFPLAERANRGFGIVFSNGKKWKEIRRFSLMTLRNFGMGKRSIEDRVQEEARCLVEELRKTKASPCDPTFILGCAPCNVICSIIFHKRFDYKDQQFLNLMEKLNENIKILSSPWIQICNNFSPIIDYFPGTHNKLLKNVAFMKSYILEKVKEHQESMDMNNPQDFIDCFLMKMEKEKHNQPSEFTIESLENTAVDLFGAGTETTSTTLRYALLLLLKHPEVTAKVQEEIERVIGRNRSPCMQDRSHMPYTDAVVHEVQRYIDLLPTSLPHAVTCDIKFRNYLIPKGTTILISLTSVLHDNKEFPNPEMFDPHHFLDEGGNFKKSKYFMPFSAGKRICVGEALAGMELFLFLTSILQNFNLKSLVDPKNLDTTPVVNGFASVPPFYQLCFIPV
Inconclusive results are not listed. The source made the active and inactive calls. Calls come from the whole dose curve; as a rule, active = well fitted inhibition curve with a large enough effect in the repeat runs; inconclusive = weak or mixed curves; inactive = no such curve, though single readings can be large or run the other way.
reportedProperty: Potency

>>> obsvalue("CCc1ccc(-n2c(SCc3cccc(F)c3)nc3[nH]ncc3c2=O)cc1")
"12 µM (active)"

Value lookup for Potency; key = CCOC(=O)N1CCc2c(sc3c2c(=O)n(Cc2ccccc2)c(=O)n3CC(=O)Nc2ccc(F)cc2)C1
2.39 µM (active)

Value lookup for Potency; key = COc1ccc(CCNc2nc(SCc3ccccc3F)nc3ccccc23)cc1OC
0.849 µM (active)

Value lookup for Potency; key = CCOc1ccc(NC(=O)Cn2cc(C(=O)c3cccs3)c3ccccc32)cc1
1.69 µM (active)

Value lookup for Potency; key = CCOC(C(=O)N(C)CCN(C)CCc1ccccc1)(c1ccccc1)c1ccccc1
6.01 µM (active)

Value lookup for Potency; key = N#Cc1ccccc1Cn1nnc2c(=O)[nH]c(C3CCCN(S(=O)(=O)c4ccc(F)cc4)C3)nc21 (stereo unspecified)
1.69 µM (active)

Value lookup for Potency; key = CCc1ccc(CNC(=O)C2CCCN(c3nnc(C)c4c(C)n(-c5ccccc5)nc34)C2)cc1 (stereo unspecified)
8.49 µM (active)

Value lookup for Potency; key = CNC(=O)c1ccc(CSc2nc3ccncc3n2Cc2ccc(C)cc2)cc1
7.56 µM (active)

Value lookup for Potency; key = CC1(C#N)CCN(c2c(C(=O)N3CCC(C(=O)C4CC4)CC3)cnc3ccc(F)cc23)CC1
1.9 µM (active)

Value lookup for Potency; key = CCOC(=O)N1CCc2c(sc3c2c(=O)n(Cc2ccccc2)c(=O)n3CC(=O)Nc2cccc(C)c2)C1
4.25 µM (active)

* * *

assay: qHTS Assay for Lipid Storage Modulators (AID 1519); details: Drosophila S3 cells, BODIPY lipid droplet/cell ratio, laser cytometry; measured here: cell count channel max response; cells loaded with oleic acid
Results filed as inconclusive are left out.
reportedProperty: max response (%)
Number in %, nothing else.

Past entries and their recorded results:
>>> obsvalue("CC(=O)OCC1OC(n2cnc3c(=O)[nH]cnc32)C(OC(C)=O)C1OC(C)=O (stereo not given)")
9.07
>>> obsvalue("CC(C)(C)NC(=O)[C@@H]1CC[C@@H]2[C@@H]3CC[C@@H]4NC(=O)C=C[C@@]4(C)[C@H]3CC[C@]21C")
-11.6
>>> obsvalue("CC1O[C@@H](O[C@H]2C(Oc3cc(O)c4c(c3)OC(c3ccc(O)cc3)CC4=O)OC(CO)C(O)C2O)C(O)C(O)C1O (stereo not given in full)")
13
>>> obsvalue("CN1CCN([C@@H](c2ccccc2)c2ccc(Cl)cc2)CC1")
-16
>>> obsvalue("O=c1[nH]c(=O)n([C@@H]2O[C@H](CO)[C@@H](O)[C@H]2O)cc1Br")
-11.6
>>> obsvalue("CNCCC=C1c2ccccc2C=Cc2ccccc21")
-2.2

Value lookup for max response; key = Cc1onc(-c2ccccc2Cl)c1C(=O)NC1C(=O)N2C1SC(C)(C)C2C(=O)O (stereo not given)
11.3

Value lookup for max response; key = O=C1C=CC(=O)c2c1ccc1c2ccc2ccccc21
-0.715

Value lookup for max response; key = CCC(=O)[C@@]1(C)[C@H](C)C[C@@H]2[C@@H]3CCC4=CC(=O)C=C[C@@]4(C)[C@H]3[C@H](O)C[C@]21C
-14.6

Value lookup for max response; key = CC1(C)C(=O)CC[C@@]2(C)C1CC(O)[C@@]1(C)C3=CC(=O)OC(c4ccoc4)[C@]3(C)CCC21 (stereo not given in full)
13.9

Value lookup for max response; key = CCc1c(C)[nH]c2c1C(=O)[C@H](CN1CCOCC1)CC2
-8.85

Value lookup for max response; key = CC1=CC2C(C(C)C)CCC(C)(O)C2CC1 (stereo not given)
-7.33

* * *

test: qHTS Assay for Lipid Storage Modulators (AID 1519); conditions: Drosophila S3 cells, BODIPY lipid droplet/cell ratio, laser cytometry; measured here: lipid channel max response; cells loaded with oleic acid
Records with an inconclusive call do not appear.
reportedProperty: max response (%)
Number in %, nothing else.

Past entries and their recorded results:
>>> obsvalue("COC(=O)C1=C(C)NC(C)=C(C(=O)OCCN(C)Cc2ccccc2)[C@H]1c1cccc([N+](=O)[O-])c1")
-13.6
>>> obsvalue("CC(=O)OC1CC2C(C)(C)C(=O)C=C[C@]2(C)C2CC[C@@]3(C)C(c4ccoc4)OC(=O)C4O[C@@]43[C@]12C (stereo partly specified)")
11.5
>>> obsvalue("COC(=O)/C(=C1\\OC(=O)C(c2ccccc2)C1=O)c1ccccc1 (stereo unspecified)")
17.7
>>> obsvalue("C/C=C(/C)C(=O)OC1C(OC(C)=O)[C@@]2(CO)C(O)C[C@@]3(C)C(=CCC4[C@@]5(C)CCC(OC6OC(C(=O)O)[C@@H](O[C@@H]7OC(CO)C(O)C(O)C7O)C(O)[C@H]6O[C@@H]6OC(CO)C(O)C(O)C6O)[C@](C)(CO)C5CC[C@@]43C)C2CC1(C)C (stereo partly specified)")
28.7
>>> obsvalue("CC(=O)N[C@@H](CC(=O)O)C(=O)O")
-4.28
>>> obsvalue("COC(=O)c1c(C)cc(OC)cc1O")
23.5

Next up:
Value lookup for max response; key = CC(C)(C)NC(=O)[C@@H]1C[C@H]2CCCC[C@@H]2CN1C[C@H](O)[C@H](Cc1ccccc1)NC(=O)[C@@H](CC(N)=O)NC(=O)c1ccc2ccccc2n1
-0.968

* * *

biological target: Glucocorticoid receptor (Homo sapiens) (UniProt P04150); experiment: GR-GFP Redistribution (AID 450); conditions: U2OS GR-GFP nuclear translocation, laser cytometry, 2 h; note: potency is the fitted concentration of half-maximal effect
Sequence (P04150 whole entry, looked up): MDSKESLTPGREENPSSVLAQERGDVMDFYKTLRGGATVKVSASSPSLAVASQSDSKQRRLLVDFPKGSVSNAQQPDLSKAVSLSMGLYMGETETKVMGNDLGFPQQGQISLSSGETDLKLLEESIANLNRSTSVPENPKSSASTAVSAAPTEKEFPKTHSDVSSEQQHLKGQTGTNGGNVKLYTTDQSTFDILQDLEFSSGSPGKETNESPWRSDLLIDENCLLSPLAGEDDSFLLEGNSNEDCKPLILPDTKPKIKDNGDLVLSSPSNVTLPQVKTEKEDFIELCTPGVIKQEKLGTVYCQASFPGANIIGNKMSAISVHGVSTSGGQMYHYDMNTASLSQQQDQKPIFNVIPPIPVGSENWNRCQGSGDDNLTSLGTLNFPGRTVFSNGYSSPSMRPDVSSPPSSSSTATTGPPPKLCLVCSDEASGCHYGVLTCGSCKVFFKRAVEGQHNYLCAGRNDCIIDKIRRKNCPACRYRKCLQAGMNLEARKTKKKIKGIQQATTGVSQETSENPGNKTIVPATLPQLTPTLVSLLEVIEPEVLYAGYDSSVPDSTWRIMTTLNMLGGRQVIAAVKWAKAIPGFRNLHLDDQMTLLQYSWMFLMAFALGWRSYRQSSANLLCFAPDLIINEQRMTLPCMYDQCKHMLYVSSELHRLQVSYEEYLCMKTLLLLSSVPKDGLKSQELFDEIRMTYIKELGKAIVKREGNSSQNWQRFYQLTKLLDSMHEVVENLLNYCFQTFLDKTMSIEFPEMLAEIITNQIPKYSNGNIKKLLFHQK
Activity calls are given as the source filed them.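 The calls were made as follows: active = compounds whose dose series gives a full or clear partial fitted curve of increased nuclear translocation; inconclusive = weak partial curve or effect only at the top dose; inactive = no dose-dependent translocation response.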
Response enum: active, inactive

Solved cases below.
>>> category("CC(C)(C)NC[C@@H](O)COc1ccccc1C1CCCC1")
"active"
>>> category("C#C[C@]1(O)CC[C@@H]2[C@H]3CCC4=CCCC[C@@H]4[C@@H]3CC[C@@]21C")
"inactive"
>>> category("CN(C)/N=N\\c1nc[nH]c1C(N)=O")
"inactive"

# outcome recorded in this test, key = CC(=O)[C@@H]1CC[C@@H]2[C@@H]3C[C@H](C)C4=CC(=O)CC[C@@]4(C)[C@H]3[C@H](O)C[C@]21C
active

# outcome recorded in this test, key = c1ccc2c3c([nH]c2c1)[C@@H]1[C@H]2CC[C@H]([C@H]4CCCN[C@H]42)N1CC3
inactive

# outcome recorded in this test, key = C[C@@]1(O)CCOC(=O)C1
inactive

* * *

system: PC26; experiment: qHTS profiling for inhibitors of Plasmodium falciparum proliferation (AID 504749); note: nearly all actives have a fitted effect of over 60% in size; conditions: P. falciparum in erythrocytes, SYBR Green DNA, 72 h; series mostly up to 12.8 µM
Inconclusive results are not listed. The source made the active and inactive calls. Calls follow the shape of the dose curve; as a rule, active = well fitted inhibition curve with a large enough effect; inconclusive = small, poorly fitted or top-dose-only effect; inactive = flat fitted curve, though single readings scatter.
Response enum: active, inactive

Solved cases below.
>>> category("CCC(=O)O[C@@H]1[C@H](C)O[C@H](O[C@H]2[C@@H](N(C)C)[C@H](O)[C@@H](O[C@@H]3[C@@H](CC=O)C[C@@H](C)[C@@H](O)/C=C\\C=C/C[C@@H](C)OC(=O)C[C@@H](OC(=O)CC)[C@H]3OC)O[C@H]2C)C[C@]1(C)O")
"inactive"
>>> category("C=CCOc1ccccc1OC[C@H](O)CNC(C)C")
"inactive"
>>> category("CCC(=O)[C@@]1(C)[C@H](C)C[C@@H]2[C@@H]3CCC4=CC(=O)C=C[C@@]4(C)[C@H]3[C@H](O)C[C@]21C")
"inactive"

# outcome recorded in this test, key = C[C@@H]1O[C@H](O[C@@H]2\C=C/C=C\C=C/C=C\C[C@H](C)OC(=O)/C=C\[C@H]3O[C@@H]3C[C@H](O)C[C@]3(O)C[C@@H](O)[C@@H](C(=O)O)[C@H](C2)O3)[C@@H](O)[C@H](N)[C@@H]1O (stereo in doubt)
inactive

# outcome recorded in this test, key = O=C1O[C@H](CN2CCOCC2)CN1/N=C\c1ccc([N+](=O)[O-])o1
inactive

# outcome recorded in this test, key = O=C(NC[C@@H](O)CO)c1c(I)c(C(=O)NC[C@@H](O)CO)c(I)c(N(CCO)C(=O)CO)c1I
inactive

# outcome recorded in this test, key = CS(=O)(=O)c1ccc([C@H](O)[C@H](CO)NC(=O)C(Cl)Cl)cc1
inactive

# outcome recorded in this test, key = CN1CCO[C@H](c2ccccc2)c2ccccc2C1
inactive

# outcome recorded in this test, key = COc1cc(N[C@@H](C)CCCN)c2ncccc2c1
active

# outcome recorded in this test, key = C[C@H](CCC(=O)O)[C@H]1CC[C@@H]2[C@@H]3[C@@H](O)C[C@H]4C[C@@H](O)CC[C@@]4(C)[C@H]3CC[C@@]21C
inactive

# outcome recorded in this test, key = CC1C2CCC3C4CC=C5CC(N(C)C)CC[C@@]5(C)C4CC[C@@]32CN1C (stereo partly specified)
inactive
